Measured IC50 values are reported for all entries that follow.
Test system: human melanoma Colo38 cells
Assay: Cell growth inhibition assay, Colo38
Format: cell-based
Settings: Homo sapiens; 24 h incubation; mean ± SD
The answer is to be given in µM; state only the numeric part.

Please review the following examples before continuing.
compound: Oc1ccc(/C=C/c2nc3ccccc3s2)cc1 [BZTst2]
measured-property: IC50
quantitative-readout: 79.8
--
compound: C(=C\c1nc2ccccc2s1)/c1ccccc1 [BZTst1, (E)-2-styrylbenzo[d]thiazole]
measured-property: IC50
quantitative-readout: 85.6

Input COc1cc(/C=C/c2nc3ccccc3s2)ccc1O [BZTst6] . Output IC50: 71.5

IC50 for Oc1ccc(/C=C/c2nc3ccccc3s2)cc1O [BZTst4] is 58.1
